- Target Entity: Melanocortin receptor 4 (Homo sapiens, UniProt P32245)
- Sequence (P32245 whole entry): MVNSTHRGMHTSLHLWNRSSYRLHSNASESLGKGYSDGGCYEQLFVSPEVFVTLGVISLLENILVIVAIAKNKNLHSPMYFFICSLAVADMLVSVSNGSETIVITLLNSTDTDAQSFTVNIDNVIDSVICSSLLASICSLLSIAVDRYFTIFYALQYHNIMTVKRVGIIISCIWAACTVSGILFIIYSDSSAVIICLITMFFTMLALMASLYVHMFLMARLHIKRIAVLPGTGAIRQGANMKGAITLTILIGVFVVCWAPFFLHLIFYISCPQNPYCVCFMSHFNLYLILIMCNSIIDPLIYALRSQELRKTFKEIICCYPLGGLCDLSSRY
- Assay Overview: Inverse agonist activity at human melanocortin receptor 4 expressed in HEK293 cells assessed as inhibition of basal cAMP accumulation incubated for 2 hrs by cAMP Alpha-screen assay
- Assay type: functional, cell-based
Activity calls are given as the source filed them. The calls are words filed in the database; no cut-off is given here. Square brackets hold non-standard residues; d marks the D form. Peptide text beside a SMILES is read from it. Dap = NC[C@H](N)C(=O)O
Outcomes: yes (active), no (inactive)

[[record]]
compound = "C[C@@H]1NC(=O)[C@H](CC(N)=O)NC(=O)[C@H](Cc2ccccc2)NC(=O)[C@H](Cc2ccc(O)cc2)NC(=O)[C@H](CCCNC(=N)N)NC(=O)[C@@H]2CCCN2C(=O)[C@H]2CCCN2C(=O)[C@H](Cc2ccccc2)NC1=O (cyclo(PRYFNAF[dP]))"
class_label = "yes"

[[record]]
compound = "C[C@@H]1NC(=O)[C@H](CN)NC(=O)[C@H](Cc2ccccc2)NC(=O)[C@H](Cc2ccccc2)NC(=O)[C@H](Cc2c[nH]cn2)NC(=O)[C@@H]2CCCN2C(=O)[C@H]2CCCN2C(=O)[C@H](Cc2ccccc2)NC1=O (cyclo(PHFF[Dap]AF[dP]))"
class_label = "no"

[[record]]
compound = "C[C@@H]1NC(=O)[C@H](CC(N)=O)NC(=O)[C@H](Cc2ccccc2)NC(=O)[C@H](Cc2ccccc2)NC(=O)[C@H](CS)NC(=O)[C@@H]2CCCN2C(=O)[C@H]2CCCN2C(=O)[C@H](Cc2ccccc2)NC1=O (cyclo(PCFFNAF[dP]))"
class_label = "no"

[[record]]
compound = "C[C@@H]1NC(=O)[C@H](CC(N)=O)NC(=O)[C@H](Cc2ccccc2)NC(=O)[C@H](Cc2ccccc2)NC(=O)[C@H](Cc2c[nH]cn2)NC(=O)[C@@H]2CCCN2C(=O)[C@H]2CCCN2C(=O)[C@H](Cc2ccccc2)NC1=O"
class_label = "yes"

[[record]]
compound = "CC(C)[C@@H]1NC(=O)[C@H](CC(N)=O)NC(=O)[C@H](Cc2ccccc2)NC(=O)[C@H](Cc2ccccc2)NC(=O)[C@H](CCCNC(=N)N)NC(=O)[C@@H]2CCCN2C(=O)[C@H]2CCCN2C(=O)[C@H](Cc2ccccc2)NC1=O (cyclo(PRFFNVF[dP]))"
class_label = "yes"

[[record]]
compound = "C[C@@H]1NC(=O)[C@H](CN)NC(=O)[C@H](Cc2ccccc2)NC(=O)[C@H](Cc2ccc(O)cc2)NC(=O)[C@H](CCCNC(=N)N)NC(=O)[C@@H]2CCCN2C(=O)[C@H]2CCCN2C(=O)[C@H](Cc2ccccc2)NC1=O (cyclo(RYF[Dap]AF[dP]P))"
class_label = "yes"

[[record]]
compound = "C[C@@H]1NC(=O)[C@H](CN)NC(=O)[C@H](Cc2ccccc2)NC(=O)[C@H](Cc2ccccc2)NC(=O)[C@H](CS)NC(=O)[C@@H]2CCCN2C(=O)[C@H]2CCCN2C(=O)[C@H](Cc2ccccc2)NC1=O (cyclo(PCFF[Dap]AF[dP]))"
class_label = "no"

[[record]]
compound = "CC(C)[C@@H]1NC(=O)[C@H](CN)NC(=O)[C@H](Cc2ccccc2)NC(=O)[C@H](Cc2ccccc2)NC(=O)[C@H](CCCNC(=N)N)NC(=O)[C@@H]2CCCN2C(=O)[C@H]2CCCN2C(=O)[C@H](Cc2ccccc2)NC1=O"
class_label = "yes"

[[record]]
compound = "C[C@@H]1NC(=O)[C@H](CN)NC(=O)[C@H](Cc2ccccc2)NC(=O)[C@H](Cc2ccccc2)NC(=O)[C@H](CCCNC(=N)N)NC(=O)[C@@H]2CCCN2C(=O)[C@H]2CCCN2C(=O)[C@H](Cc2ccccc2)NC1=O"
class_label = "yes"

